Ref: paper PMC9308755

ASSAY_SUMMARY: Human liver microsome stability
Type: in vitro ADME
REPORTED_CONDITIONS: liver microsomes
Overview of reported CLint scaled across a group of molecules:
MEASURED_METRIC: CLint scaled (mL/min/kg)

{"STRUCTURE": "N#Cc1cc(Cn2c(N3CCCC3)nc3ccccc32)ccc1F", "RESULT_UNITS": "mL/min/kg", "MEASURED": 38.1}
{"STRUCTURE": "CCCNc1nc2ccccc2n1Cc1ccccc1", "RESULT_UNITS": "mL/min/kg", "MEASURED": 103}
{"STRUCTURE": "Clc1ccc(Cn2c(N3CCCC3)nc3ccccc32)cc1", "RESULT_UNITS": "mL/min/kg", "MEASURED": 278}
{"STRUCTURE": "Fc1cc(Cl)ccc1Cn1c(N2CCCC2)nc2ccccc21", "RESULT_UNITS": "mL/min/kg", "MEASURED": 239}
{"STRUCTURE": "c1ccc(Cn2c(N3CCCC3)nc3ccccc32)cc1", "RESULT_UNITS": "mL/min/kg", "MEASURED": 164}
{"STRUCTURE": "CCCNc1nc2ccccc2n1Cc1ccc(Cl)cc1", "RESULT_UNITS": "mL/min/kg", "MEASURED": 127}

----------
ASSAY_SUMMARY: In vivo rat cassette PK
REPORTED_CONDITIONS: rat, brain/plasma, intravenous, 0.25 mpk

{"STRUCTURE": "N#Cc1cc(Cn2c(N3CCCC3)nc3ccccc32)ccc1F", "Kp": 0.6}
{"STRUCTURE": "CCCNc1nc2ccccc2n1Cc1ccc(Cl)cc1", "Kp": 2.1}

----------
TARGET: mouse TRPC5 (Mus musculus)
Sequence (Q9QX29 1-975): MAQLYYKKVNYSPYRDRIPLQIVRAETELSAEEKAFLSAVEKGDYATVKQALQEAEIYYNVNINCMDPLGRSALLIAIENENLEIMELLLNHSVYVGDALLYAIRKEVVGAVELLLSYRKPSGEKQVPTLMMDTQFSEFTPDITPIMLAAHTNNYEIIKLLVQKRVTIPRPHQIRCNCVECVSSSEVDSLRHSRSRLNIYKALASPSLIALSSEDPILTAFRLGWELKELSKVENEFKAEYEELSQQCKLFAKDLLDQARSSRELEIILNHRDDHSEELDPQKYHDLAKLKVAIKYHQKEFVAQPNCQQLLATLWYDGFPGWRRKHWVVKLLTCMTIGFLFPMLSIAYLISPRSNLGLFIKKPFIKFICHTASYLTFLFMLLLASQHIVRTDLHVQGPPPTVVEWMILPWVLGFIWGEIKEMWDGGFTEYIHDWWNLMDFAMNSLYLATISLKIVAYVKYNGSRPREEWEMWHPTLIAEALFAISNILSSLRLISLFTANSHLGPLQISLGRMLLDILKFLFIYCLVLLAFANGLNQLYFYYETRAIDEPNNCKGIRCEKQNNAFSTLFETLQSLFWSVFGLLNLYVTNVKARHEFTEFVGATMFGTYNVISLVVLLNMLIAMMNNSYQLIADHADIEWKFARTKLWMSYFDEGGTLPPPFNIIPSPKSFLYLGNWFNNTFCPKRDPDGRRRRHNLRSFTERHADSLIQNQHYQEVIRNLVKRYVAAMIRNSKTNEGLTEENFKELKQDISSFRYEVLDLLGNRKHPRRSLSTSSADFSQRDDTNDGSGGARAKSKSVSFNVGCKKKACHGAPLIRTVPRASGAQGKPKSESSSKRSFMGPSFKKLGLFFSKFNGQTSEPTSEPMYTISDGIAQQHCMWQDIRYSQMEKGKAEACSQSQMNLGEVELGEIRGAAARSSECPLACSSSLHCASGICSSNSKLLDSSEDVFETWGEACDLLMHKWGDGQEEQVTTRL
ASSAY_SUMMARY: Syncropatch automated patch clamp, inhibition of riluzole-induced TRPC5 currents
REPORTED_CONDITIONS: TRPC5 IC50, riluzole (30 μM)-induced TRPC5 current; Syncropatch
pIC50: −log10 of the molar value.

{"STRUCTURE": "c1ccc(Cn2c(N3CCCC3)nc3ccccc32)cc1", "pIC50": 5.37}
{"STRUCTURE": "Clc1ccc(Cn2c(N3CCCC3)nc3ccccc32)cc1", "pIC50": 6.36}
{"STRUCTURE": "CC(C)CCNc1nc2ccccc2n1Cc1ccccc1", "pIC50": 5.89}
{"STRUCTURE": "COc1ccc2c(c1)nc(N1CCCC1)n2Cc1ccccc1", "pIC50": 5.94}
{"STRUCTURE": "Fc1ccc(Cn2c(N3CCCC3)nc3ccccc32)cc1", "pIC50": 6.23}
{"STRUCTURE": "Cc1ccc(Cn2c(N3CCCC3)nc3ccccc32)cc1", "pIC50": 6.04}
{"STRUCTURE": "Clc1cccc(Cn2c(N3CCCC3)nc3ccccc32)c1", "pIC50": 6.14}
{"STRUCTURE": "Fc1cccc(Cn2c(N3CCCC3)nc3ccccc32)c1", "pIC50": 5.83}
{"STRUCTURE": "Cc1cccc(Cn2c(N3CCCC3)nc3ccccc32)c1", "pIC50": 5.72}

----------
TARGET: mouse TRPC5 (Mus musculus)
Sequence (Q9QX29 1-975): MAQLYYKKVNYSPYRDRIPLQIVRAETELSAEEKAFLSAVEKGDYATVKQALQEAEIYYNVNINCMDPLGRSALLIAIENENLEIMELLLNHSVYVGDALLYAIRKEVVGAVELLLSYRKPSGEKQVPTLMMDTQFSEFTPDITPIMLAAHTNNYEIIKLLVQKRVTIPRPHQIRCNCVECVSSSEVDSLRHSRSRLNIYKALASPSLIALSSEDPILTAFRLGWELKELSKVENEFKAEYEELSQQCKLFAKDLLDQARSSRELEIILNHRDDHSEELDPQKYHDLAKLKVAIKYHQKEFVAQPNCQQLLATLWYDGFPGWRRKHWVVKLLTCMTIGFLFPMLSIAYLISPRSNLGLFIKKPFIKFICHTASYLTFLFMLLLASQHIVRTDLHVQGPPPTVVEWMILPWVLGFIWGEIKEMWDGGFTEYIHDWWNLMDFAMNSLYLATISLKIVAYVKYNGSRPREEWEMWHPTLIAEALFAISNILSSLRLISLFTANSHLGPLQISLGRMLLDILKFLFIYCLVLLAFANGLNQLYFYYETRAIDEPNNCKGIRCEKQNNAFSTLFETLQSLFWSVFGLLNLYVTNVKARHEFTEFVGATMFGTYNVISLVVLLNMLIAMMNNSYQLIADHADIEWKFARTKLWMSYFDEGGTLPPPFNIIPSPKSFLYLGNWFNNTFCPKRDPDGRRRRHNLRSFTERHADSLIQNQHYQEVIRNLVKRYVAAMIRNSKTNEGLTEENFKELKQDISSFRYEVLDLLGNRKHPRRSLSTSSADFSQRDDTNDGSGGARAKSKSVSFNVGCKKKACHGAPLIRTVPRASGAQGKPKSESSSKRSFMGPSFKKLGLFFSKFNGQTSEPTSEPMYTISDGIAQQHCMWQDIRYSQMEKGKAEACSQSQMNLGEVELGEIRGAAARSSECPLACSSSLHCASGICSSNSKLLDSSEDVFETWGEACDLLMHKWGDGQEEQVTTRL
ASSAY_SUMMARY: Syncropatch automated patch clamp, inhibition of riluzole-induced TRPC5 currents
Assay type: cell-based
REPORTED_CONDITIONS: Syncropatch

{"MOLECULE": "O=S(=O)(c1ccccc1)n1c(N2CCCC2)nc2ccccc21", "TRPC5 activity (in words)": "inactive"}
{"MOLECULE": "O=C(c1ccccc1)n1c(N2CCCC2)nc2ccccc21", "TRPC5 activity (in words)": "inactive"}
{"MOLECULE": "c1ccc(Cn2c(CCN3CCCC3)nc3ccccc32)cc1", "TRPC5 activity (in words)": "moderate activity"}
{"MOLECULE": "CC1CCCCN1c1nc2ccccc2n1Cc1ccc(Cl)cc1 (stereo not shown)", "TRPC5 activity (in words)": "not active"}
{"MOLECULE": "CN1CCC(N2CCN(c3nc4ccccc4n3Cc3ccccc3)CC2)CC1", "TRPC5 activity (in words)": "not productive"}
{"MOLECULE": "Cc1cc2nc(N3CCCC3)n(Cc3ccccc3)c2cc1C", "TRPC5 activity (in words)": "moderate activity"}
{"MOLECULE": "c1ccc(Cn2c(N3CCC4(CC3)CNC4)nc3ccccc32)cc1", "TRPC5 activity (in words)": "not productive"}
{"MOLECULE": "CC1CCN(c2nc3ccccc3n2Cc2ccc(Cl)cc2)CC1", "TRPC5 activity (in words)": "not active"}
{"MOLECULE": "O=S1(=O)CCN(c2nc3ccccc3n2Cc2ccc(Cl)cc2)CC1", "TRPC5 activity (in words)": "not active"}

----------
TARGET: mouse TRPC5 (Mus musculus, UniProt Q9QX29)
ASSAY_SUMMARY: Syncropatch automated patch clamp, inhibition of riluzole-induced TRPC5 currents
REPORTED_CONDITIONS: TRPC5 IC50, riluzole (30 μM)-induced TRPC5 current; Syncropatch
pIC50: −log10 of the molar value.
Response key: YES means pIC50 >= 6; NO means pIC50 < 6.

{"STRUCTURE": "O=c1[nH]ncc(-c2ccc3c(c2)nc(N2CCCC2)n3Cc2ccccc2)c1Cl", "ASSIGNED_CLASS": "NO"}
{"STRUCTURE": "N#Cc1cc(Cn2c(N3CCCC3)nc3ccccc32)ccc1F", "ASSIGNED_CLASS": "YES"}
{"STRUCTURE": "Clc1ccc(Cn2c(N3CCCC3)nc3ccccc32)cn1", "ASSIGNED_CLASS": "NO"}
{"STRUCTURE": "Fc1ccccc1Cn1c(N2CCCC2)nc2ccccc21", "ASSIGNED_CLASS": "NO"}
